# credit: PubChem BioAssay AID2060498

System: 171881-019-R-J1-PDC tumor spheroids, viability
Assay explanation: Anticancer human tumor 171881-019-R-J1-PDC patient-derived invasive breast carcinoma cell line growth inhibition [GQUAD]
Recorded conditions: curve of first compound; second compound 3.16 µM; spheroids with HUVEC and MSC
Excerpt: DNA G-quadruplex Stabilizer Agents in Combinations in Complex Spheroids A high-throughput screen of multi-cell type tumor spheroids was designed to identify active combinations of DNA G-quadruplex stabilizer agents and targeted small molecules. […] Compounds. […] If the clinical Cmax for an agent had not been determined, the highest concentration tested was 10 microM. […]
pIC50: −log10 of the molar value.
Readings of pIC50 for the listed molecules

Record excerpt, results attached:
Molecule | pIC50
CC[C@@]1(O)C(=O)OCc2c1cc1n(c2=O)Cc2cc3c(CN(C)C)c(O)ccc3nc2-1 + Cc1cnc(CNC(=O)c2c(=O)c3ccc(N4CCCN(C)CC4)nc3n3c2sc2ccccc23)cn1 | < 6.50
CC(C)(O)C1CCC(Nc2ccc3ncc(-c4cccc(C(F)(F)F)c4)n3n2)CC1 (stereo not given) + CN(C)c1ccc(Nc2c3ccc(NC(=O)CCN4CCCC4)cc3nc3cc(NC(=O)CCN4CCCC4)ccc23)cc1 | > 7.50
Cc1cccc(N(C)C(=O)C2C(O)CCN2c2nc(C)cc(C(F)(F)F)c2C#N)c1 (stereo not given) + Cc1[nH]c2ccc(F)cc2c1-c1nc2c3cccnc3c3ncccc3c2[nH]1 | > 7.50
CCCS(=O)(=O)Nc1ccc(F)c(C(=O)c2c[nH]c3ncc(-c4ccc(Cl)cc4)cc23)c1F + CN(C)c1ccc(Nc2c3ccc(NC(=O)CCN4CCCC4)cc3nc3cc(NC(=O)CCN4CCCC4)ccc23)cc1 | > 7.50

Please turn your attention to the following entry.
Prompt: What value of pIC50 has been recorded for this entry: COc1ncnc(C2CC2)c1-c1ncc2cnn(Cc3ccc(-c4nc(C(F)(F)F)cn4C(C)C)cc3)c2n1 + CN(C)c1ccc(Nc2c3ccc(NC(=O)CCN4CCCC4)cc3nc3cc(NC(=O)CCN4CCCC4)ccc23)cc1
Response: > 7.50

---

Test system: 171881-019-R-J1-PDC tumor spheroids, viability
Assay explanation: Anticancer human tumor 171881-019-R-J1-PDC cell line growth inhibition [GQUAD];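 further: spheroids exposed to compounds for 7 days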;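 on viability, T/C: 100% = DMSO vehicle control viability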
Recorded conditions: second compound 1 µM; first compound 0.00316 µM; stronger effect = lower value; spheroids with HUVEC and MSC
Value kind: viability, T/C (%)
Reply numerically in %, unit not repeated.

Record excerpt, results attached:
Compound | Value kind | Endpoint unit | Readout value
CCc1c2c(nc3ccc(O)cc13)-c1cc3c(c(=O)n1C2)COC(=O)[C@]3(O)CC + Cc1cnc(CNC(=O)c2c(=O)c3ccc(N4CCCN(C)CC4)nc3n3c2sc2ccccc23)cn1 | viability, T/C | % | 53.2
Cn1ncnc1[C@H]1c2n[nH]c(=O)c3cc(F)cc(c23)N[C@@H]1c1ccc(F)cc1 + Cc1cnc(CNC(=O)c2c(=O)c3ccc(N4CCCN(C)CC4)nc3n3c2sc2ccccc23)cn1 | viability, T/C | % | 59.8
CCc1c2c(nc3ccc(O)cc13)-c1cc3c(c(=O)n1C2)COC(=O)[C@]3(O)CC + Cc1[nH]c2ccc(F)cc2c1-c1nc2c3cccnc3c3ncccc3c2[nH]1 | viability, T/C | % | 39.5
Cc1[nH]c2ccccc2c1CCNCc1ccc(/C=C/C(=O)NO)cc1 + CN(C)c1ccc(Nc2c3ccc(NC(=O)CCN4CCCC4)cc3nc3cc(NC(=O)CCN4CCCC4)ccc23)cc1 | viability, T/C | % | 3.43

Prompt: Item Cn1ncnc1[C@H]1c2n[nH]c(=O)c3cc(F)cc(c23)N[C@@H]1c1ccc(F)cc1 + CN(C)c1ccc(Nc2c3ccc(NC(=O)CCN4CCCC4)cc3nc3cc(NC(=O)CCN4CCCC4)ccc23)cc1 with 171881-019-R-J1-PDC tumor spheroids, viability - viability, T/C?
Response: 24.4

Prompt: Now the compound Cn1ncnc1[C@H]1c2n[nH]c(=O)c3cc(F)cc(c23)N[C@@H]1c1ccc(F)cc1 + Cc1[nH]c2ccc(F)cc2c1-c1nc2c3cccnc3c3ncccc3c2[nH]1
Response: 76.8
